# credit: patent US20060153853A1

molecular target: T1, IGF-I (insulin-like growth factor I) (UniProt P05019 49-118); assay: SPR (BIAcore), IGF-I amine-coupled to CM5 chip; ratio against hIGFBP-2
T1 construct: Amine-coupled (70 RU) to a CM-5 biosensor chip; also added to HT-29 cells; also called IGF-1
T1 sequence (P05019 49-118 limits assumed): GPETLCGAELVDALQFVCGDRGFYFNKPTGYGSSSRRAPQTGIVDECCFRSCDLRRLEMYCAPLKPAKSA
Reported Rel. KD (KD of hIGFBP-2/KD of hIGFBP-2 mutant) by item:
measuredAttribute: Rel. KD (KD of hIGFBP-2/KD of hIGFBP-2 mutant)

>  <binder>
K180A K181AHis hIGFBP-2 (other, human, mature; also called K180A, K181A mutation) EVLFRCPPCTPERLAACGPPPVAPPAAVAAVAGGARMPCAELVREPGCGCCSVCARLEGEACGVYTPRCGQGLRCYPHPGSELPLQALVMGEGTCEKRRDAEYGASPEQVADNGDDHSEGGLVENHVDSTMNMLGGGGSAGRKPLKSGMKELAVFREKVTEQHRQMGKGGKHHLGLEEPAALRPPPARTPCQQELDQVLERISTMRLPDERGPLEHLYSLHIPNCDKHGLYNLKQCKMSLNGQRGECWCVNPNTGKLIQGAPTIRGDPECHLFYNEQQEARGVHTQRMQHHHHHH

>  <experimentalValue>
0.87

$$$$
>  <binder>
K237AHis hIGFBP-2 (other, human, mature) EVLFRCPPCTPERLAACGPPPVAPPAAVAAVAGGARMPCAELVREPGCGCCSVCARLEGEACGVYTPRCGQGLRCYPHPGSELPLQALVMGEGTCEKRRDAEYGASPEQVADNGDDHSEGGLVENHVDSTMNMLGGGGSAGRKPLKSGMKELAVFREKVTEQHRQMGKGGKHHLGLEEPKKLRPPPARTPCQQELDQVLERISTMRLPDERGPLEHLYSLHIPNCDKHGLYNLKQCAMSLNGQRGECWCVNPNTGKLIQGAPTIRGDPECHLFYNEQQEARGVHTQRMQHHHHHH

>  <experimentalValue>
2.29

$$$$
>  <binder>
K227AHis hIGFBP-2 (other, human, mature) EVLFRCPPCTPERLAACGPPPVAPPAAVAAVAGGARMPCAELVREPGCGCCSVCARLEGEACGVYTPRCGQGLRCYPHPGSELPLQALVMGEGTCEKRRDAEYGASPEQVADNGDDHSEGGLVENHVDSTMNMLGGGGSAGRKPLKSGMKELAVFREKVTEQHRQMGKGGKHHLGLEEPKKLRPPPARTPCQQELDQVLERISTMRLPDERGPLEHLYSLHIPNCDAHGLYNLKQCKMSLNGQRGECWCVNPNTGKLIQGAPTIRGDPECHLFYNEQQEARGVHTQRMQHHHHHH

>  <experimentalValue>
1.34

$$$$
>  <binder>
K234AHis hIGFBP-2 (other, human, mature; also called K234A hIGFBP-2; K234AHis IGFBP-2) EVLFRCPPCTPERLAACGPPPVAPPAAVAAVAGGARMPCAELVREPGCGCCSVCARLEGEACGVYTPRCGQGLRCYPHPGSELPLQALVMGEGTCEKRRDAEYGASPEQVADNGDDHSEGGLVENHVDSTMNMLGGGGSAGRKPLKSGMKELAVFREKVTEQHRQMGKGGKHHLGLEEPKKLRPPPARTPCQQELDQVLERISTMRLPDERGPLEHLYSLHIPNCDKHGLYNLAQCKMSLNGQRGECWCVNPNTGKLIQGAPTIRGDPECHLFYNEQQEARGVHTQRMQHHHHHH

>  <experimentalValue>
0.64

$$$$
